# Lookup of reported Ki keyed by entry
EXPERIMENTAL TARGET: PAF receptor (vital human blood platelets) (Homo sapiens, UniProt P25105)
Construct: endogenous in cells
Sequence (P25105 whole entry): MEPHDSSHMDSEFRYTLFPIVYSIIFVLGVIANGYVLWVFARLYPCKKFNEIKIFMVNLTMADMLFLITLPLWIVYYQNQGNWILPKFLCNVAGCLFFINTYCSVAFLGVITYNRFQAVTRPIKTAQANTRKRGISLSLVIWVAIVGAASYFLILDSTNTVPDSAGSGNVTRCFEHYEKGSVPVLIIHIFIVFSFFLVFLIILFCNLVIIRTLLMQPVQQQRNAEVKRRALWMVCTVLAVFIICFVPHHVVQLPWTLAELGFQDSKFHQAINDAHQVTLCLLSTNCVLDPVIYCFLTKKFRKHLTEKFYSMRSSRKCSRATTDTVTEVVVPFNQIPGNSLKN
ASSAY NOTES: [3H]PAF receptor binding to vital human blood platelets
EXPERIMENTAL PARAMETERS: [3H]PAF 30 pmolar, 90 minutes, ambient temperature, Ki calculated from IC50
PROPERTY MEASURED: Ki (nM)

>>> df
                                   molecule  output_unit  recorded_result
0  Cc1nnc2n1-c1sc3c(c1C(c1ccc(CCc4ccc(C(F)(F)F)cc4)cc1)=N[C@H]2C)CCC3 [Compound 2]           nM             0.47
1  Cc1nnc2n1-c1sc3c(c1C(c1ccc(CCc4ccc(C(F)(F)F)cc4)cc1)=NC2C)CCC3 (racemic) [Compound 1]           nM             0.79
